- protocol notes: Thermodynamic solubility at room temperature
- Type: physicochemical
- condition parameters: 25 °C, organic solvent or mixture, thermodynamic from solid, solvent THF
- Experimental: In an exemplary experiment, the thermodynamic solubilities of the solid forms described herein were determined at room temperature (RT, 25±3° C.).
property: solubility

INSERT INTO measurements (compound, property, reading) VALUES
  ('CNC[C@@H](O)COc1ccc(Cl)c(-c2nc(-c3c(C)noc3C)c(C)c(N3CC4(CCN(C(=O)OC)CC4)C3)n2)c1 [Form A]', 'solubility', '> 36 mg/mL');

====

- protocol notes: Thermodynamic solubility at room temperature
- Type: physicochemical
- condition parameters: 25 °C, organic solvent or mixture, thermodynamic from solid, solvent 1,4-Dioxane
property: solubility

INSERT INTO measurements (molecule, reading) VALUES
  ('CNC[C@@H](O)COc1ccc(Cl)c(-c2nc(-c3c(C)noc3C)c(C)c(N3CC4(CCN(C(=O)OC)CC4)C3)n2)c1 [Form A]', '> 40 mg/mL');

====

- protocol notes: Thermodynamic solubility at room temperature
- Format: physicochemical
- condition parameters: 25 °C, organic solvent or mixture, thermodynamic from solid, solvent Acetic acid
property: solubility

INSERT INTO measurements (molecule, reading) VALUES
  ('CNC[C@@H](O)COc1ccc(Cl)c(-c2nc(-c3c(C)noc3C)c(C)c(N3CC4(CCN(C(=O)OC)CC4)C3)n2)c1 [Form A]', '> 44 mg/mL');

====

- protocol notes: Thermodynamic solubility at room temperature
- Assay type: physicochemical
- condition parameters: 25 °C, organic solvent or mixture, thermodynamic from solid, solvent 2-Methyl-tetrahydrofuran
property: solubility

INSERT INTO results (compound, reading) VALUES
  ('CNC[C@@H](O)COc1ccc(Cl)c(-c2nc(-c3c(C)noc3C)c(C)c(N3CC4(CCN(C(=O)OC)CC4)C3)n2)c1 [Form A]', '> 50 mg/mL');

====

- protocol notes: Thermodynamic solubility at room temperature
- Format: physicochemical
- condition parameters: 25 °C, organic solvent or mixture, thermodynamic from solid, solvent Isopropyl acetate
- Experimental: In an exemplary experiment, the thermodynamic solubilities of the solid forms described herein were determined at room temperature (RT, 25±3° C.).
property: solubility

INSERT INTO results (molecule, property, reading) VALUES
  ('CNC[C@@H](O)COc1ccc(Cl)c(-c2nc(-c3c(C)noc3C)c(C)c(N3CC4(CCN(C(=O)OC)CC4)C3)n2)c1 [Form A]', 'solubility', '> 36 mg/mL');

====

- protocol notes: Thermodynamic solubility at room temperature
- Format: physicochemical
- condition parameters: 25 °C, organic solvent or mixture, thermodynamic from solid, solvent CHCl3
property: solubility

INSERT INTO assay_data (compound, property, reading) VALUES
  ('CNC[C@@H](O)COc1ccc(Cl)c(-c2nc(-c3c(C)noc3C)c(C)c(N3CC4(CCN(C(=O)OC)CC4)C3)n2)c1 [Form A]', 'solubility', '> 38 mg/mL');

====

- protocol notes: Thermodynamic solubility at room temperature
- Assay type: physicochemical
- condition parameters: 25 °C, organic solvent or mixture, thermodynamic from solid, solvent n-Heptane/THF (1:2 by volume)
property: solubility

INSERT INTO assay_data (compound, reading) VALUES
  ('CNC[C@@H](O)COc1ccc(Cl)c(-c2nc(-c3c(C)noc3C)c(C)c(N3CC4(CCN(C(=O)OC)CC4)C3)n2)c1 [Form A]', '> 42 mg/mL');
